System: Pseudomonas aeruginosa ATCC27853
protocol notes: Broth microdilution MIC/MMC
assay setup: P. aeruginosa
outcome measure: MMC/MIC
Reply with just the number.

Some entries whose results are on file:
# compound, outcome measure, test value
data = [
    ("Cc1cc(O)c2c(c1)C(=O)c1cc(O)cc(O)c1C2=O", "MMC/MIC", 1),
    ("COc1cc(O)c2c(c1)C(=O)c1cc(C)cc(O)c1C2=O", "MMC/MIC", 2),
]

Okay, next one:
## Input Return reported MMC/MIC; argument: O=C(O)c1cn(C2CC2)c2cc(N3CCNCC3)c(F)cc2c1=O [ciprofloxacin, Ciprofloxacin, reference compound]
## Output 1
